// data source = patent US7534781B2

test: Particle size distribution (d10, d50) by laser diffraction, Malvern particle sizer 2600 C; format: physicochemical; details: dry powder, f=300 mm, trihydrate
recordedMetric: d50 (μm)
Numeric answer only, unit μm assumed.

Example cases with answers are listed next.
CC1(C)S[C@@H]2[C@H](NC(=O)[C@H](N)c3ccc(O)cc3)C(=O)N2[C@H]1C(=O)O.O.O.O [Ex. IV, amoxicillin trihydrate] | 37.0
CC1(C)S[C@@H]2[C@H](NC(=O)[C@H](N)c3ccc(O)cc3)C(=O)N2[C@H]1C(=O)O.O.O.O [Ex. V, amoxicillin trihydrate] | 61
CC1(C)S[C@@H]2[C@H](NC(=O)[C@H](N)c3ccc(O)cc3)C(=O)N2[C@H]1C(=O)O.O.O.O [Ex. III, amoxicillin trihydrate] | 47.8

stdin: Please give the measured d50 for this compound: CC1(C)S[C@@H]2[C@H](NC(=O)[C@H](N)c3ccc(O)cc3)C(=O)N2[C@H]1C(=O)O.O.O.O [Ex. VI, amoxicillin trihydrate]
stdout: 86

stdin: Please give the measured d50 for this compound: CC1(C)S[C@@H]2[C@H](NC(=O)[C@H](N)c3ccc(O)cc3)C(=O)N2[C@H]1C(=O)O.O.O.O [Comp. A, amoxicillin trihydrate, reference compound]
stdout: 17

stdin: Please give the measured d50 for this compound: CC1(C)S[C@@H]2[C@H](NC(=O)[C@H](N)c3ccc(O)cc3)C(=O)N2[C@H]1C(=O)O.O.O.O [Ex. II, amoxicillin trihydrate]
stdout: 42.8
